# system: TYK2 (Homo sapiens, UniProt P29597)
# Construct: Degradation of TYK2 in cells was quantitatively measured using Meso Scale Discovery (MSD) technology; endogenous in cells; host or cells: OCI-LY10
# Sequence (P29597 whole entry): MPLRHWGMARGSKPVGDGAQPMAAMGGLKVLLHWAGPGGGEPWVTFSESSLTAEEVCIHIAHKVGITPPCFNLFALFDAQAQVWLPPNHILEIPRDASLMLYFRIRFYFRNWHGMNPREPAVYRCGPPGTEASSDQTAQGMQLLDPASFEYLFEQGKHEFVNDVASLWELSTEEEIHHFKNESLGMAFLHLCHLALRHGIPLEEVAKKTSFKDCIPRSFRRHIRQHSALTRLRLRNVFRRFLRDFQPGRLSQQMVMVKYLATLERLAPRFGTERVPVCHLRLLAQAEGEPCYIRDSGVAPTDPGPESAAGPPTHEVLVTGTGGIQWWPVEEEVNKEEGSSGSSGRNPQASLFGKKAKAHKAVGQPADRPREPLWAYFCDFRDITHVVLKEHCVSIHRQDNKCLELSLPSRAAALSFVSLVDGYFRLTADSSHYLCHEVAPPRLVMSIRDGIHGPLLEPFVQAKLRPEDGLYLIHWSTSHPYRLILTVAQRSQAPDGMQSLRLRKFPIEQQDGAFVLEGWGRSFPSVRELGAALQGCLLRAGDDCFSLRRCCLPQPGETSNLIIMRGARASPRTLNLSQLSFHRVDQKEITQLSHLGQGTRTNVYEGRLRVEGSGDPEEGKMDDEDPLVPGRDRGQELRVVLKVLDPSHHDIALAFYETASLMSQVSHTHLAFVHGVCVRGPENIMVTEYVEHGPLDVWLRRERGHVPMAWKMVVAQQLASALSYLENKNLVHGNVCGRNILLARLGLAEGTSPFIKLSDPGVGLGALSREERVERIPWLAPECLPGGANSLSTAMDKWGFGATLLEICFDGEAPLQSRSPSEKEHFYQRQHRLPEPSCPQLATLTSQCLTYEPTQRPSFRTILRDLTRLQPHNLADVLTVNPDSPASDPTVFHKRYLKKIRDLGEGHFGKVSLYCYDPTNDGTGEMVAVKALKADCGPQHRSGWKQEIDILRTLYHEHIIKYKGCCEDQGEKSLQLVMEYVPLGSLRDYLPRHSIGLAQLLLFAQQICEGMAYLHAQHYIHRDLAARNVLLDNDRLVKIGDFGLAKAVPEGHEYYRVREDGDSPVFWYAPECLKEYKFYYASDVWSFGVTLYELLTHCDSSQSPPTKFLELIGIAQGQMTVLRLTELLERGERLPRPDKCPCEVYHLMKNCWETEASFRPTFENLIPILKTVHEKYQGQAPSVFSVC
# experiment: TYK2 MSD degradation in OCI-LY10 cells
# Assay type: cell-based
# experimentalParameters: TYK2 degradation in OCI-LY10 cells, 4 to 24 hours incubation
readoutName: TYK2 MSD OCI-LY10 Dmax %

compound: CNc1cc(N2CCc3c(N4CCN(C5CCN(C6CCN(C(=O)c7ccc(Cl)c(N8CCC(=O)NC8=O)c7)CC6)CC5)CC4)cccc32)nn2c(C(=O)N[C@@H]3C[C@@H]3F)cnc12
system: TYK2 (Homo sapiens, UniProt P29597)
TYK2 MSD OCI-LY10 Dmax %: D (D (<50%))

compound: CNc1cc(N2CCc3c(-c4ncc(CN5CC6(CCN(C(=O)c7ccc(C)c(N8CCC(=O)NC8=O)c7)CC6(F)F)C5)cc4F)cccc32)nn2c(C(=O)N[C@@H]3CC[C@H]3OC)cnc12
system: TYK2 (Homo sapiens, UniProt P29597)
TYK2 MSD OCI-LY10 Dmax %: A (A (>90%))

compound: CNc1cc(N2CCc3c(-c4ncc(CN5CC6(CCN(C(=O)c7cc(C)c(Cl)c(N8CCC(=O)NC8=O)c7)CC6(F)F)C5)cc4F)cc(F)cc32)nn2c(C(=O)N[C@@H]3C[C@@H]3F)cnc12
system: TYK2 (Homo sapiens, UniProt P29597)
TYK2 MSD OCI-LY10 Dmax %: A (A (>90%))

compound: CNc1cc(N2CCc3c(-c4ccc(CN5CCC(N6CC(N7CCN(c8ccc9c(c8)n(C)c(=O)n9C8CCC(=O)NC8=O)CC7)C6)C(F)(F)C5)cn4)cccc32)nn2c(C(=O)N[C@@H]3C[C@@H]3F)cnc12 (stereo partly shown)
system: TYK2 (Homo sapiens, UniProt P29597)
TYK2 MSD OCI-LY10 Dmax %: B (B (90 to >75%))

compound: CNc1cc(N2CCc3c(CN4CCC(N5CCC6(CCN(C(=O)c7ccc(Cl)c(N8CCC(=O)NC8=O)c7)CC6)CC5)C(F)(F)C4)cc(F)cc32)nn2c(C(=O)N[C@@H]3C[C@@H]3F)cnc12 (stereo partly shown)
system: TYK2 (Homo sapiens, UniProt P29597)
TYK2 MSD OCI-LY10 Dmax %: A (A (>90%))

compound: CNc1cc(N2CCc3c(-c4ccc(OC5CCC6(CC5)CCN(Cc5ccc(Cl)c(N7CCC(=O)NC7=O)c5)CC6)cn4)cccc32)nn2c(C(=O)N[C@@H]3C[C@@H]3F)cnc12
system: TYK2 (Homo sapiens, UniProt P29597)
TYK2 MSD OCI-LY10 Dmax %: D (D (<50%))

compound: CNc1cc(N2CCc3c(N4CCN(C5CN(C6CCN(C(=O)c7ccc(Cl)c(N8CCC(=O)NC8=O)c7)CC6)C5)CC4)cccc32)nn2c(C(=O)N[C@@H]3C[C@@H]3F)cnc12
system: TYK2 (Homo sapiens, UniProt P29597)
TYK2 MSD OCI-LY10 Dmax %: D (D (<50%))

compound: CNc1cc(N2CCc3c(CN4CCC(N5CCC6(CCN(C(=O)c7ccc(Cl)c(N8CCC(=O)NC8=O)c7)C6)C5)C(F)(F)C4)cccc32)nn2c(C(=O)N[C@@H]3C[C@@H]3F)cnc12 (stereo partly shown)
system: TYK2 (Homo sapiens, UniProt P29597)
TYK2 MSD OCI-LY10 Dmax %: A (A (>90%))

compound: CNc1cc(N2CCc3c(-c4ccc(CN5CCC(N6CCC7(CC6)CN(c6ccc8c(c6)n(C)c(=O)n8C6CCC(=O)NC6=O)C7)C(F)(F)C5)cn4)cccc32)nn2c(C(=O)NC3CC3)cnc12 (stereo not shown)
system: TYK2 (Homo sapiens, UniProt P29597)
TYK2 MSD OCI-LY10 Dmax %: B (B (90 to >75%))

Ask: Quick one: TYK2 MSD OCI-LY10 Dmax % for CNc1cc(N2CCc3c(CN4CCC(N5CCC(C6CCN(C(=O)c7cc(C)c(Cl)c(N8CCC(=O)NC8=O)c7)CC6)CC5)C(F)(F)C4)cccc32)nn2c(C(=O)N[C@@H]3CC[C@H]3OC)cnc12 (stereo partly shown) ?
Reply: A (A (>90%))
